The reported measurements were obtained from the supplement of paper PMC10065799.

Tested on: Fer (mouse);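 further: 11-residue human phosphosite peptides and single-mutation variants displayed on the E. coli surface, counted by deep sequencing, each peptide's frequency after selection divided by its frequency in the unselected input library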;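 further: frequency after pTyr selection over input frequency; kinase dosed for 20-30% of maximal phosphorylation in three min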
Experiment: phosphorylation enrichment, bacterial display (enrichment ratio); higher = better substrate or ligand; peptides without Tyr show the background
# label = rule met if phosphorylation enrichment >= 0.5 else rule not met

Say whether QTSTDYDIRFY [CSNK2A1_Y131_L128S] shows phosphorylation enrichment of 0.5 or more.
rule met

// next record RQQEDYLLYKQ [RARRES1_Y159]
rule met

For DSFWSYCNAVA [SLC20A2_Y436_S434W_YF] then?
rule met

Do the same for AAYNKYDQERF [CDC73_Y293_R292K] please
rule not met

And then YDGKEYDPVEA [MAPRE2_Y167] , what is it?
rule met

Let us now turn to GRVLGYGAFGK [FLT4_Y853]
rule not met

Further, for HNELYYEEAEH [VANGL1_Y345] ?
rule met

Continue with IEPGIYIPEDD [XPNPEP3_Y455]
rule met

Try the sequence NFNPNYCFAGK [ALK_Y1096_D1091N_YF]
rule met

Another sequence: VLTSKYPGGGG [HBA1_Y141_R142P]
rule not met

Please do the same for SFCFRYRCAPR [SUMF1_Y344_A348P_YF] as well.
rule met

Also, VSYGEYRYRSV [CFTR_Y515_D513G] please.
rule not met

Now consider VYPATYHPDHW [EFCAB12_Y544] .
rule not met

Same again, this time with EWLRRYLENGK [HLA-A_Y195]
rule not met

Subsequent entry: FMYKVYSDPQP [FGFR1_Y280_C277Y]
rule met

Then HTVVSYAEVRA [CLOCK_Y378] ?
rule met

Record: HTDDGYMPMSP [IRS1_Y612]
rule met
